# PROTOCOL DESCRIPTION: Stability in acidic conditions (Britten-Robinson buffer, HPLC)
# Type: physicochemical
# EXPERIMENTAL SETUP: britten-robinson buffer, pH 3
# Protocol: The stability of the compound in acidic conditions was determined at 37 °C in Britten-Robinson buffer which had been previously adjusted to pH 3.0, 5.0 or 7.0. The compound was dissolved in this buffer by supersonic waves, and the filtered solution was monitored by high performance liquid chromatography (HPLC) (Tosoh TSK-gel ODS-120T 4.6-250mm, CH₃CN/10 mM phosphate buffer (pH 6.0), 1 ml/min., room temperature (25 °C), detector ultraviolet (UV) 240-250 nm). […]
ENDPOINT NAME: half-life (min)
Lab book: enter the figure in min, no units written.

// sample CC(C)CNc1ccccc1C[S+]([O-])c1ncc[nH]1 (stereo not shown) [Imidazole derivative A] , its half-life was 1.8

###

# PROTOCOL DESCRIPTION: Stability in acidic conditions (Britten-Robinson buffer, HPLC)
# Type: physicochemical
# EXPERIMENTAL SETUP: britten-robinson buffer, pH 5
ENDPOINT NAME: half-life (min)
Lab book: enter the figure in min, no units written.

// sample CC(C)CNc1ccccc1C[S+]([O-])c1ncc[nH]1 (stereo not shown) , its half-life was 55.8
